procedureSummary: Probe fluorescence ratio response to linolenic acid relative to ADIFAB2
Type: binding
assaySetup: response relative to ADIFAB2
Text: In an alternate preferred embodiment, the protein is rI-FABP that has Ala substituted for Leu at position 72 (rI-FABP-L72A) with the resulting probe named ADIFAB2. […] ADIFAB2 also has an altered spectral response, making it especially useful for measurements of FFAu in blood samples (Apple et al, Clinical Proteomics, (2004) 1:41-44, U.S. patent application Ser. No. 10/670,958). […] The baseline value for this ratio, measured in the absence of analyte, is designated R0. […]
One threshold, 1, splits the recorded DR/DR LNA values: lower ones are YES, equal or higher ones are NO.

molecule="14W 72M 117A (protein, listed as Rattus norvegicus, PEPTIDE (1)...(131) wild-type rat intestinal fatty acid binding protein) AFDGTWKVDRNENWEKFMEKMGINVVKRKLGAHDNLKLTITQEGNKFTVKESSNFRNIDVVFELGVDFAYSMADGTELTGTWTMEGNKLVGKFKRVDNGKELIAVREISGNELIQTATYEGVEAKRIFKKE" answerlabel=NO
molecule="38W1, 72A (protein, listed as Rattus norvegicus, PEPTIDE (1)...(131) wild-type rat intestinal fatty acid binding protein) AFDGTWKVDRNENYEKFMEKMGINVVKRKLGAHDNLKWTITQEGNKFTVKESSNFRNIDVVFELGVDFAYSAADGTELTGTWTMEGNKLVGKFKRVDNGKELIAVREISGNELIQTYTYEGVEAKRIFKKE" answerlabel=NO
molecule="49L1, 72A (protein, listed as Rattus norvegicus, PEPTIDE (1)...(131) wild-type rat intestinal fatty acid binding protein) AFDGTWKVDRNENYEKFMEKMGINVVKRKLGAHDNLKLTITQEGNKFTLKESSNFRNIDVVFELGVDFAYSAADGTELTGTWTMEGNKLVGKFKRVDNGKELIAVREISGNELIQTYTYEGVEAKRIFKKE" answerlabel=NO
molecule="60T, 72A (protein, listed as Rattus norvegicus, PEPTIDE (1)...(131) wild-type rat intestinal fatty acid binding protein) AFDGTWKVDRNENYEKFMEKMGINVVKRKLGAHDNLKLTITQEGNKFTVKESSNFRNIDTVFELGVDFAYSAADGTELTGTWTMEGNKLVGKFKRVDNGKELIAVREISGNELIQTYTYEGVEAKRIFKKE" answerlabel=NO
molecule="14L 18L 31Y 73L 117A 72A (protein, listed as Rattus norvegicus, PEPTIDE (1)...(131) wild-type rat intestinal fatty acid binding protein) AFDGTWKVDRNENLEKFLEKMGINVVKRKLYAHDNLKLTITQEGNKFTVKESSNFRNIDVVFELGVDFAYSALDGTELTGTWTMEGNKLVGKFKRVDNGKELIAVREISGNELIQTATYEGVEAKRIFKKE" answerlabel=NO

Query string: Below 1 on DR/DR LNA? Entry 106F1, 72A (protein, listed as Rattus norvegicus, PEPTIDE (1)...(131) wild-type rat intestinal fatty acid binding protein) AFDGTWKVDRNENYEKFMEKMGINVVKRKLGAHDNLKLTITQEGNKFTVKESSNFRNIDVVFELGVDFAYSAADGTELTGTWTMEGNKLVGKFKRVDNGKELIAVFEISGNELIQTYTYEGVEAKRIFKKE
Result string: YES
